These entries and their values trace back to paper PMC7692337.

- assay-protocol: P-glycoprotein assay, line overexpressing P-gp
- Format: cell-based, human
- condition: human, with verapamil (concentration not stated); 48 h exposure, with verapamil; reference drugs; read-out: GI50 SW1573/PGP w Verapamil
measure-name: GI50 at 48 h (nM)
Only the number, expressed in nM, is required.

1. CC(=O)O[C@H]1C(=O)[C@@]2(C)[C@H]([C@H](OC(=O)c3ccccc3)[C@]3(O)C[C@H](OC(=O)[C@H](O)[C@@H](NC(=O)c4ccccc4)c4ccccc4)C(C)=C1C3(C)C)[C@]1(OC(C)=O)CO[C@@H]1C[C@@H]2O [PTX, paclitaxel, reference compound] :: 4.2

Turning now to a further molecule:
Query block: Using the record for CC[C@]1(O)C[C@@H]2CN(CCc3c([nH]c4ccccc34)[C@@](C(=O)OC)(c3cc4c(cc3OC)N(C)[C@H]3[C@@](O)(C(=O)OC)[C@H](OC(C)=O)[C@]5(CC)C=CCN6CC[C@]43[C@@H]65)C2)C1 [VB, vinblastine, reference compound] , report its GI50 at 48 h.
Result block: 1

* * *

In this section, each of the molecules is paired with its reported log10(GI50).
- System: T-47D (breast)
- assay-protocol: Antiproliferative activity, NCI protocol
- Format: cell-based, human
- condition: Homo sapiens, T47D; drug resistant line; read-out: GI50 T-47D (Breast)
Could you please treat all values as log10 of GI50 in µM?

These recorded examples may help you get a feel for the data.
1. N#C[Se]CCCC(=O)NCCc1ccc2c(c1)OCO2 :: -0.40
2. c1cc2c(cc1CC[Se][Se]CCc1ccc3c(c1)OCO3)OCO2 :: -0.06
3. O=C(CC[Se][Se]CCC(=O)NCCc1ccc(O)c(O)c1)NCCc1ccc(O)c(O)c1 :: 1.59
4. O=C(CCSSCCC(=O)NCCc1ccc(O)c(O)c1)NCCc1ccc(O)c(O)c1 :: 1.65
5. c1cc2c(cc1C[Se][Se]Cc1ccc3c(c1)OCO3)OCO2 :: 0.46

Switching to the query record.
Query block: Checklist item: log10(GI50) tested on T-47D (breast), entry O=C(CCC[Se][Se]CCCC(=O)NCCc1ccc(O)c(O)c1)NCCc1ccc(O)c(O)c1 , value?
Result block: 0.76

* * *

Here the recorded GI50 is given for each entry.
- Test system: T-47D (breast)
- assay-protocol: Antiproliferative activity, NCI protocol
- Assay type: cell-based, human
- condition: Homo sapiens, T47D; drug resistant line; read-out: GI50 T-47D (Breast)

1. O=C(CCCSSCCCC(=O)NCCc1ccc(O)c(O)c1)NCCc1ccc(O)c(O)c1 :: > 100 µM

Query block: I'm curious: which GI50 was measured for O=C1CCCSSCCCC(=O)Oc2cc(CCO)ccc2O1 tested on T-47D (breast)?
Result block: > 100 µM

Query block: Entry O=C(O)CCCSSCCCC(=O)O please
Result block: > 100 µM

Query block: Query O=C(O)CCSSCCC(=O)O next
Result block: > 100 µM

Query block: Follow-up item: O=C(CSSCC(=O)NCCc1ccc(O)c(O)c1)NCCc1ccc(O)c(O)c1
Result block: > 100 µM
